system: KRAS G12V dependent lung adenocarcinoma cell line, NCI-H441; test: Cellular pERK (Thr202/Tyr204) FRET/HTRF assay; type: cell-based; details: Homo sapiens, NCI-H441, pERK HTRF, NCI-H441 cells (KRAS G12V)
pIC50: −log10 of the molar value.
// pIC50 lookup, one value per entry
recorded-metric: pIC50

molecule: [2H]C([2H])([2H])Oc1c(F)ccc2cccc(-c3ncc4c(N5CCCO[C@H]6[C@H](F)[C@H]65)nc(OC([2H])([2H])[C@@]56CCCN5C[C@H](F)C6)nc4c3F)c12 [Example 86]
observed-value: > 7.30

molecule: [2H]C([2H])(Oc1nc(N2CCOC[C@H]3[C@H](F)[C@H]32)c2cnc(-c3cccc4ccc(F)c(C#C)c34)c(F)c2n1)[C@@]12CCCN1C[C@H](F)C2 [Example 45]
observed-value: > 7.30

molecule: [2H]C([2H])([2H])Oc1c(F)ccc2cc(N)cc(-c3ncc4c(N5CCCC[C@H]6[C@H](F)[C@H]65)nc(OC([2H])([2H])[C@@]56CCCN5C[C@H](F)C6)nc4c3F)c12 [Example 58]
observed-value: > 7.30

molecule: [2H]C([2H])(Oc1nc(N2CCC[C@H]3C[C@H]32)c2cnc(-c3cc(N)cc4cc(F)c(F)c(C#C)c34)c(F)c2n1)[C@@]12CCCN1C[C@H](F)C2 [Example 52]
observed-value: 6.30 to 7.30

molecule: [2H]C([2H])(Oc1nc(N2CCCC[C@H]3[C@H](F)[C@H]32)c2cnc(-c3cc(N)cc4cc(F)c(F)c(OC(F)F)c34)c(F)c2n1)[C@@]12CCCN1C[C@H](F)C2 [Example 67]
observed-value: > 7.30

molecule: [2H]C([2H])(Oc1nc(N2CCOC[C@H]3C[C@H]32)c2cnc(-c3ccc(F)c4sc(N)c(C#N)c34)c(F)c2n1)[C@@]12CCCN1C[C@H](F)C2 [Example 48]
observed-value: 6.30 to 7.30

molecule: [2H]C([2H])(Oc1nc(N2CCCO[C@@H]3[C@H](F)[C@@H]32)c2cnc(-c3cc(N)cc4cc(F)c(F)c(C#C)c34)c(F)c2n1)[C@@]12CCCN1C[C@H](F)C2 [Example 22]
observed-value: 6.30 to 7.30

molecule: [2H]C([2H])(Oc1nc(N2CCOC[C@H]3[C@H](F)[C@H]32)c2cnc(-c3cc(N)cc4c(F)c(F)c(F)c(C#C)c34)c(F)c2n1)[C@@]12CCCN1C[C@H](F)C2 [Example 93]
observed-value: > 7.30

molecule: [2H]C([2H])(Oc1nc(N2CCOC[C@@H]3[C@@H](F)[C@@H]32)c2cnc(-c3cccc4ccc(F)c(C#C)c34)c(F)c2n1)[C@@]12CCCN1C[C@H](F)C2 [Example 46]
observed-value: 5.00 to 6.30

molecule: [2H]C([2H])(Oc1nc(N2CCOC[C@H]3[C@H](F)[C@H]32)c2cnc(-c3cc(N)cc4ccc(F)c(C#C)c34)c(F)c2n1)[C@@]12CCCN1C[C@H](F)C2 [Example 87]
observed-value: > 7.30

molecule: [2H]C([2H])(Oc1nc(N2CCCC[C@H]3[C@@H](F)[C@H]32)c2cnc(-c3cc(N)cc4cc(F)c(F)c(C#C)c34)c(F)c2n1)[C@@]12CCCN1C[C@H](F)C2 [Example 13]
observed-value: 6.30 to 7.30

molecule: [2H]C([2H])(Oc1nc(N2CCCO[C@@H]3C[C@@H]32)c2cnc(-c3ccc(F)c4sc(N)c(C#N)c34)c(F)c2n1)[C@@]12CCCN1C[C@H](F)C2 [Example 40]
observed-value: 5.00 to 6.30

molecule: [2H]C([2H])([2H])Oc1c(F)c(F)cc2cc(N)cc(-c3ncc4c(N5CCCC[C@H]6[C@H](F)[C@H]65)nc(OC([2H])([2H])[C@@]56CCCN5C[C@H](F)C6)nc4c3F)c12 [Example 65]
observed-value: > 7.30

molecule: C#Cc1c(F)ccc2cc(O)cc(-c3ncc4c(N5CCCC6CC6C5)nc(OC[C@@]56CCCN5C[C@H](F)C6)nc4c3F)c12 (stereo partly drawn) [Example 12]
observed-value: > 7.30

molecule: [2H]C([2H])(Oc1nc(N2CCCC[C@H]3[C@H](F)[C@H]32)c2cnc(-c3cccc4cc(F)c(F)c(C#C)c34)c(F)c2n1)[C@@]12CCCN1C[C@H](F)C2 [Example 79]
observed-value: > 7.30

molecule: C#Cc1c(F)ccc2cc(N)cc(-c3ncc4c(N5CCCCC6C5C6(F)F)nc(OC[C@@]56CCCN5C[C@H](F)C6)nc4c3F)c12 (stereo partly drawn) [Example 57]
observed-value: 6.30 to 7.30

molecule: [2H]C([2H])(Oc1nc(N2CCCC[C@H]3[C@H](F)[C@H]32)c2cnc(-c3cccc4ccc(F)c(OCF)c34)c(F)c2n1)[C@@]12CCCN1C[C@H](F)C2 [Example 73]
observed-value: > 7.30

molecule: C#Cc1c(F)ccc2cc(N)cc(-c3ncc4c(N5CCCC[C@@H]6C[C@@H]65)nc(OC[C@@]56CCCN5C[C@H](F)C6)nc4c3F)c12 [Example 4]
observed-value: 5.00 to 6.30

molecule: [2H]C([2H])(Oc1nc(N2CCCO[C@@H]3C[C@@H]32)c2cnc(-c3cc(N)cc4cc(F)c(F)c(C#C)c34)c(F)c2n1)[C@@]12CCCN1C[C@H](F)C2 [Example 18]
observed-value: 5.00 to 6.30

molecule: [2H]C([2H])(Oc1nc(N2CCCC[C@@H]3[C@H](F)[C@@H]32)c2cnc(-c3cc(N)cc4cc(F)c(F)c(C#C)c34)c(F)c2n1)[C@@]12CCCN1C[C@H](F)C2 [Example 14]
observed-value: 5.00 to 6.30

molecule: C#Cc1c(F)ccc2cc(O)cc(-c3ncc4c(N5CCCC[C@H]6C[C@H]65)nc(OC[C@@]56CCCN5C[C@H](F)C6)nc4c3F)c12 [Example 2]
observed-value: > 7.30
